assay: Dynamic light scattering: LNP particle size and PDI; type: physicochemical; conditions: LNP, Formulation F1, N/P 3
Exercise: state measured Size (nm) N/P:3 for each of the molecules provided.
I'd appreciate it if you wrote the number followed by its unit.

| molecule | meas_value |
| --- | --- |
| CCCCCCCC/C=C\CCCCCCCC(=O)OCC(COC(=O)CCCCCCC/C=C\CCCCCCCC)(COC(=O)CCC(CCCCCC)OC(=O)NCCN1CCCC1)COC(=O)CCC(OCCCCCCCC)OCCCCCCCC (stereo not shown) [Compound 4] | 86 ± 10 nm |

Respectfully, I request Size (nm) N/P:3 for each entry included below.
1. CCCCC/C=C\CCOC(=O)CCCCCCC(=O)OCC(COC(=O)CCCCCCC(=O)OCC/C=C\CCCCC)(COC(=O)CCCCCCC(=O)OCC/C=C\CCCCC)COC(=O)CCC(CCCCCC)OC(=O)NCCN1CCCC1 (stereo not shown) [Compound 10]
2. CCCCC/C=C\C/C=C\CCCCCCCC(=O)OCC(COC(=O)CCCCCCC/C=C\C/C=C\CCCCC)(COC(=O)CCC(CCCCCC)OC(=O)NCCN1CCCC1)COC(=O)CCC(OCCCCCCCC)OCCCCCCCC (stereo not shown) [Compound 6]
3. CCCCCCCC/C=C\CCCCCCCC(=O)OCC(COC(=O)CCCCCCC/C=C\CCCCCCCC)(COC(=O)CCCCCCC/C=C\CCCCCCCC)COC(=O)CCC(CCCCCC)OC(=O)NCCN1CCCC1 (stereo not shown) [Compound 1]

**Result**
1. 86 ± 4 nm
2. 77 ± 2 nm
3. 85 ± 4 nm

====

test: Plate-based fluorescence (RiboGreen) assay: nucleic acid cargo content and encapsulation efficiency of LNPs; format: physicochemical; conditions: LNP, Formulation F4, N/P 6
Exercise: state measured EE (%) N/P:6 for each of the compounds provided.
Answers are plain numbers, in %.

Previously resolved entries follow.
| compound | unit_abbrev | meas_value |
| --- | --- | --- |
| CCCCC/C=C\CCOC(=O)CCCCCC(=O)OCC(COC(=O)CCCCCCOC(=O)C(CCCC)CCCCCC)(COC(=O)CCCCCC(=O)OCC/C=C\CCCCC)COC(=O)CCC(CCCCCC)OC(=O)NCCN1CCCC1 (stereo not drawn) | % | 99 |
| CCCCC/C=C\CCOC(=O)CCCCCCC(=O)OCC(COC(=O)CCCCCCC(=O)OCC/C=C\CCCCC)(COC(=O)CCC(CCCCCC)OC(=O)NCCN1CCCC1)COC(=O)CC12CC3CC(CC(C3)C1)C2 (stereo not drawn) | % | 99 |

Just so you know, measured EE (%) N/P:6 for CCCCCCCC/C=C\CCCCCCCC(=O)OCC(COC(=O)CCCCCCC/C=C\CCCCCCCC)(COC(=O)CCC(CCCCCC)OC(=O)NCCN1CCCC1)COC(=O)CC12CC3CC(CC(C3)C1)C2 (stereo not drawn) came out at 98

====

experiment: Dynamic light scattering: LNP particle size and PDI; type: physicochemical; conditions: LNP, Formulation F3, N/P 3
Exercise: state measured PDI N/P:3 for each of the molecules provided.
Numbers only.

Previously resolved entries follow.
| molecule | meas_value |
| --- | --- |
| CCCCC/C=C\C/C=C\CCCCCCCC(=O)OCC(COC(=O)CCCCCCC/C=C\C/C=C\CCCCC)(COC(=O)CCC(CCCCCC)OC(=O)NCCN1CCCC1)COC(=O)CCC(OCCCCCCCC)OCCCCCCCC (stereo not shown) [Compound 6] | 0.059 |
| CCCCCCCC/C=C\CCCCCCCC(=O)OCC(COC(=O)CCCCCCC/C=C\CCCCCCCC)(COC(=O)CCCCCCC/C=C\CCCCCCCC)COC(=O)CCC(CCCCCC)OC(=O)NCCN1CCCC1 (stereo not shown) [Compound 1] | 0.037 |
| CCCCC/C=C\CCOC(=O)CCCCCCC(=O)OCC(COC(=O)CCCCCCC(=O)OCC/C=C\CCCCC)(COC(=O)CCCCCCC(=O)OCC/C=C\CCCCC)COC(=O)CCC(CCCCCC)OC(=O)NCCN1CCCC1 (stereo not shown) [Compound 10] | 0.081 |

Now for a further molecule.
Just so you know, measured PDI N/P:3 for CCCCCCCC/C=C\CCCCCCCC(=O)OCC(COC(=O)CCCCCCC/C=C\CCCCCCCC)(COC(=O)CCC(CCCCCC)OC(=O)NCCN1CCCC1)COC(=O)CCC(OCCCCCCCC)OCCCCCCCC (stereo not shown) [Compound 4] came out at 0.089
